- Tested on: 126254-015-R-J1-PDC complex spheroid growth, % test/control;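 further: spheroids exposed to compound for seven days; 100% = DMSO vehicle control wells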
- experiment-summary: Anticancer human tumor 126254-015-R-J1-PDC patient-derived soft tissue sarcoma cell line growth inhibition [Asc]
- measurement-setup: second compound 0.0949 µM; first compound 0.0316 µM; hits give low values
property: viability, T/C (%)
Numeric only. Scale: %

1. O=C(c1ccc(F)c(F)c1Nc1ccc(I)cc1F)N1CC(O)([C@@H]2CCCCN2)C1 + CCN1C(C(=O)NC23CCC(C(=O)O)(CC2)CC3)C(c2cccc(Cl)c2F)C2(C(=O)Nc3cc(Cl)ccc32)C12CCCCC2 ... 107
2. COc1c(OCCCN2CCOCC2)ccc2c3n(c(=NC(=O)c4cnc(N)nc4)nc12)CCN3 + CCN1C(C(=O)NC23CCC(C(=O)O)(CC2)CC3)C(c2cccc(Cl)c2F)C2(C(=O)Nc3cc(Cl)ccc32)C12CCCCC2 ... 57.5
3. C=CC(=O)N1CCN(c2nc(=O)n(-c3c(C)ccnc3C(C)C)c3nc(-c4c(O)cccc4F)c(F)cc23)C(C)C1 (stereo unspecified) + CCN1C(C(=O)NC23CCC(C(=O)O)(CC2)CC3)C(c2cccc(Cl)c2F)C2(C(=O)Nc3cc(Cl)ccc32)C12CCCCC2 ... 110
4. NC1CCC(NC2CC2c2ccccc2)CC1 (stereo unspecified) + CCN1C(C(=O)NC23CCC(C(=O)O)(CC2)CC3)C(c2cccc(Cl)c2F)C2(C(=O)Nc3cc(Cl)ccc32)C12CCCCC2 ... 75.5
5. O=C(c1cc(Cc2n[nH]c(=O)c3ccccc23)ccc1F)N1CCN(C(=O)C2CC2)CC1 + CCN1C(C(=O)NC23CCC(C(=O)O)(CC2)CC3)C(c2cccc(Cl)c2F)C2(C(=O)Nc3cc(Cl)ccc32)C12CCCCC2 ... 95.5

Shift focus to the following entry.
For the compound CNC(C)C(=O)NC1CN(S(=O)(=O)c2cccc(S(=O)(=O)N3CCC4CCC(C(=O)NC(c5ccccc5)c5ccccc5)N4C(=O)C(NC(=O)C(C)NC)C3)c2)CCC2CCC(C(=O)NC(c3ccccc3)c3ccccc3)N2C1=O (stereo unspecified) + CCN1C(C(=O)NC23CCC(C(=O)O)(CC2)CC3)C(c2cccc(Cl)c2F)C2(C(=O)Nc3cc(Cl)ccc32)C12CCCCC2 , report viability, T/C.
78.5
